# System: MDA-MB-231
# Assay Summary: Antiproliferative activity against human MDA-MB-231 cells after 24 hrs by MTT assay
# Type: functional, cell-based
# Assay Context: MDA-MB-231, 24 h
Threshold 20 µM. IC50 below it: condition met. IC50 at it or above: condition not met.

>  <Smiles String>
COc1ccc(C(=O)/C=C/c2cc(-c3cc(OC)c(OC)c(OC)c3)n3nc(-c4ccccc4)cc3n2)cc1OC

>  <Label Class>
condition met

$$$$
>  <Smiles String>
COc1ccc(C(=O)/C=C/c2cc(-c3cc(OC)c(OC)c(OC)c3)n3nc(-c4ccccc4)cc3n2)cc1

>  <Label Class>
condition met

$$$$
>  <Smiles String>
COc1ccc(C(=O)/C=C/c2cc(-c3ccc(OC)cc3)n3nc(-c4ccccc4)cc3n2)cc1

>  <Label Class>
condition met

$$$$
>  <Smiles String>
COc1cc(-c2cc(C(=O)/C=C/c3ccccc3)nc3cc(-c4ccccc4)nn23)cc(OC)c1OC

>  <Label Class>
condition met

$$$$
>  <Smiles String>
COc1ccc(-c2cc(C(=O)/C=C/c3ccc(C)cc3)nc3cc(-c4ccccc4)nn23)cc1OC

>  <Label Class>
condition not met

$$$$
